# Assayed Target: T1, RAGE-Fc (human, UniProt Q15109 23-344, limits assumed)
# T1 construct: also called hRAGE; not shown: Fc part, detected with anti-hIgG Fc-specific conjugate
# T1 sequence (Q15109 23-344 limits assumed): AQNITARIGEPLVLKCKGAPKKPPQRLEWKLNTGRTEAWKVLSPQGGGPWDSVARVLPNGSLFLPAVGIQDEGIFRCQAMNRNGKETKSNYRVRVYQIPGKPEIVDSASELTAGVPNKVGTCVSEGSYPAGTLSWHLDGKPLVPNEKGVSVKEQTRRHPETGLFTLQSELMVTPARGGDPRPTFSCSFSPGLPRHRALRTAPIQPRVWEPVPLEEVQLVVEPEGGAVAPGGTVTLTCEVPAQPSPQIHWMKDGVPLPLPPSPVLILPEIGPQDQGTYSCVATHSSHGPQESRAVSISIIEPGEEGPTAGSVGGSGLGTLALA
# Protocol Summary: competition ELISA, RAGE-Fc binding to coated S100A6
Property Label: IC50 (mg/L)
Answer in mg/L, number only, no unit symbol.

Please review the following examples before continuing.
- Binder: "158 RAGE-1 (antibody, V domains shown, Anti-RAGE monoclonal antibody from a hybridoma, captured by anti-mouse Fc; also called LP08105) VH: QIQLVQSGPELKKPGETVKISCKASGYTFTDYSMHWVKQAPGKGLKWMGWINTETGEPTYADDFKGRFAFSLETSASTAYLLINNLKTEDTATYFCARDYLYYYAMDYWGQGTSVTVSS VL: DVVLTQTPLSLPVNIGDQASISCKSTKSLLNSDGFTYLDWYLQKPGQSPQLLIYLVSNRFSGVPDRFSGSGSGTDFTLKISRVEAEDLGVYYCFQSNYLPLTFGGGTKVEIK"
  Unit Annotation: "mg/L"
  IC50: 6.79
- Binder: "166 RAGE-1 (antibody, V domains shown, Anti-RAGE monoclonal antibody from a hybridoma, captured by anti-mouse Fc; also called LP08122; LP08122D) VH: QVQLQQSGPELVKPGTSVRISCKASGYTFTSYYIHWVKQRPGQGLEWIGWIYPGNVITNYHEKFKGKASLTADKSSSTAYMQLSSLTSEDSAVYFCAREDPFAYWGQGTLVTVSA VL: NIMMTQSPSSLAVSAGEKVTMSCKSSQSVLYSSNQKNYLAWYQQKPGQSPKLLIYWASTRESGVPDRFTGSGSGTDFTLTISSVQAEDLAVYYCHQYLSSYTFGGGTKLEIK"
  Unit Annotation: "mg/L"
  IC50: 8.33
- Binder: "Control XT-M4 (antibody, V domains shown) VH: EVQLVESGGGLVQPGRSLKLSCVVSGFTFNNYWMTWIRQTPGKGLEWVASINNSGDNTYYPDSVKDRFTISRDNAKSTLYLQMNSLRSEDTATYYCTRGGDITTGFDYWGQGVMVTVSS VL: DIQMTQSPSSMSVSLGDTITITCRASQDVGIYVNWFQQKPGKSPRRMIYRATNLADGVPSRFSGSRSGSIYSLTISSLESEDVADYHCLEFDEHPLTFGSGTKVEIK"
  Unit Annotation: "mg/L"
  IC50: 5.2

According to the records, this binder 240 RAGE-1 (antibody, V domains shown, Anti-RAGE monoclonal antibody from a hybridoma, captured by anti-mouse Fc; also called LP08108) VH: QIQLVQSGPELKKPGETVKISCKASGYTFTDYSMHWVKQAPGKGLKWMGWINTETGEPTYADDFKGRFAFSLETSASTAYLQINNLKNEDTATYFCARDYLYYYAMDYWGQGTSVTVSS VL: DVVLTQTPLSLPVSIGDQASISCKSTKSLLNSDGFTYLDWYLQKPGQSPQLLIYLVSNRFSGVPDSFSGSGSGTDFTLKISRVEAEDLGVYYCFQSNYFPLTFGGGTTLEIK displays IC50 of 6.66

Data origin: patent US20120282637A1
